The reported measurements were obtained from patent US20100120789A1.

target: Human 11β-HSD1 (Homo sapiens); assay: 11β-HSD1 HEK assay (whole HEK 293 cells stably transfected with HSD11B1, SPA); format: cell-based; set-up: expressed in transfected cells; host or cells: HEK 293; settings: HEK293, read-out: % INHIBITION of Human 11 β-HSD1 at 10 μM (HEK)
Sequence (P28845 whole entry): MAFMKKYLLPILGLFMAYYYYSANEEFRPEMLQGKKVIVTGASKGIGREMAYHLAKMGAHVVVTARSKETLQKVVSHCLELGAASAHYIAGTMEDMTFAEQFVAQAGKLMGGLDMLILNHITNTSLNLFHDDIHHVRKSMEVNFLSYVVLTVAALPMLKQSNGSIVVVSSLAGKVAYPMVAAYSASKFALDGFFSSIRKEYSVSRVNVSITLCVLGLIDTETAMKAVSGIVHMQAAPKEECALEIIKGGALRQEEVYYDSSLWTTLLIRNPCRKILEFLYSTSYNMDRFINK

- compound: "O=C(COCc1ccc(Cl)cc1)C12CC3CC(CC(C3)C1)C2"
  target-system: "Human 11β-HSD1 (Homo sapiens)"
  inhibition at 10 µM: "20 to 60%"
- compound: "O=C(NCc1cccnc1)C12CC3CC(CC(C3)C1)C2"
  target-system: "Human 11β-HSD1 (Homo sapiens)"
  inhibition at 10 µM: "> 60%"
- compound: "CN(Cc1cccs1)C(=O)CC(C)(C)C"
  target-system: "Human 11β-HSD1 (Homo sapiens)"
  inhibition at 10 µM: "> 60%"
- compound: "Cc1nc2c(NC(=O)C34CC5CC(CC(C5)C3)C4)c(C)ccc2s1"
  target-system: "Human 11β-HSD1 (Homo sapiens)"
  inhibition at 10 µM: "20 to 60%"
- compound: "O=C(CC12CC3CC(CC(C3)C1)C2)NCc1csc2ccccc12"
  target-system: "Human 11β-HSD1 (Homo sapiens)"
  inhibition at 10 µM: "20 to 60%"
- compound: "CC1(C(=O)NCCc2cccs2)CC1"
  target-system: "Human 11β-HSD1 (Homo sapiens)"
  inhibition at 10 µM: "20 to 60%"
- compound: "O=C(NC12CC3CC(CC(C3)C1)C2)OCCc1cccs1"
  target-system: "Human 11β-HSD1 (Homo sapiens)"
  inhibition at 10 µM: "> 60%"
- compound: "O=C(CC12CC3CC(CC(C3)C1)C2)NCCc1cccs1"
  target-system: "Human 11β-HSD1 (Homo sapiens)"
  inhibition at 10 µM: "> 60%"
- compound: "O=C(NCc1cccs1)C12CC3CC(CC(O)(C3)C1)C2"
  target-system: "Human 11β-HSD1 (Homo sapiens)"
  inhibition at 10 µM: "< 20%"
- compound: "CC1(C(=O)NCCc2cccs2)CCCCC1"
  target-system: "Human 11β-HSD1 (Homo sapiens)"
  inhibition at 10 µM: "> 60%"
- compound: "O=C(NCc1ccccn1)C12CC3CC(CC(C3)C1)C2"
  target-system: "Human 11β-HSD1 (Homo sapiens)"
  inhibition at 10 µM: "20 to 60%"
- compound: "Cc1ccc(S(=O)(=O)CC(=O)C23CC4CC(CC(C4)C2)C3)cc1"
  target-system: "Human 11β-HSD1 (Homo sapiens)"
  inhibition at 10 µM: "> 60%"
- compound: "O=C(NCCc1cccs1)C12CC3CC(CC(C3)C1)C2"
  target-system: "Human 11β-HSD1 (Homo sapiens)"
  inhibition at 10 µM: "> 60%"
- compound: "O=C(NCc1csc2ccccc12)C12CC3CC(CC(C3)C1)C2"
  target-system: "Human 11β-HSD1 (Homo sapiens)"
  inhibition at 10 µM: "20 to 60%"
- compound: "Cc1c(Cl)cccc1S(=O)(=O)NC12CC3CC(CC(C3)C1)C2"
  target-system: "Human 11β-HSD1 (Homo sapiens)"
  inhibition at 10 µM: "20 to 60%"
- compound: "O=S(=O)(NC1C2CC3CC(C2)CC1C3)c1cccs1 (stereo not drawn)"
  target-system: "Human 11β-HSD1 (Homo sapiens)"
  inhibition at 10 µM: "20 to 60%"
- compound: "CN(Cc1cccs1)C(=O)C1(C)CCCCC1"
  target-system: "Human 11β-HSD1 (Homo sapiens)"
  inhibition at 10 µM: "> 60%"
- compound: "c1csc(Cc2noc(C34CC5CC(CC(C5)C3)C4)n2)c1"
  target-system: "Human 11β-HSD1 (Homo sapiens)"
  inhibition at 10 µM: "20 to 60%"
- compound: "Cc1ccc(OCC(=O)C23CC4CC(CC(C4)C2)C3)cc1"
  target-system: "Human 11β-HSD1 (Homo sapiens)"
  inhibition at 10 µM: "> 60%"
- compound: "CC(C)(C)C(=O)NCc1cccs1"
  target-system: "Human 11β-HSD1 (Homo sapiens)"
  inhibition at 10 µM: "20 to 60%"
- compound: "O=C(C[S+]([O-])Cc1ccc(Cl)cc1)C12CC3CC(CC(C3)C1)C2 (stereo not drawn)"
  target-system: "Human 11β-HSD1 (Homo sapiens)"
  inhibition at 10 µM: "> 60%"
- compound: "O=C(NCCc1cccs1)C12CC3CC(CC1C3)C2"
  target-system: "Human 11β-HSD1 (Homo sapiens)"
  inhibition at 10 µM: "> 60%"
- compound: "Cn1cccc1CNC(=O)CC12CC3CC(CC(C3)C1)C2"
  target-system: "Human 11β-HSD1 (Homo sapiens)"
  inhibition at 10 µM: "> 60%"
- compound: "Cc1nc2cc(NCC(=O)C34CC5CC(CC(C5)C3)C4)ccc2s1"
  target-system: "Human 11β-HSD1 (Homo sapiens)"
  inhibition at 10 µM: "> 60%"
- compound: "O=C(NCCCn1ccnc1)C12CC3CC(CC(C3)C1)C2"
  target-system: "Human 11β-HSD1 (Homo sapiens)"
  inhibition at 10 µM: "20 to 60%"
- compound: "O=C(NCc1cccs1)C12CC3CC(CC(C3)C1)C2"
  target-system: "Human 11β-HSD1 (Homo sapiens)"
  inhibition at 10 µM: "> 60%"
- compound: "O=C(NCc1cccs1)NC12CC3CC(CC(C3)C1)C2"
  target-system: "Human 11β-HSD1 (Homo sapiens)"
  inhibition at 10 µM: "20 to 60%"
- compound: "O=C(CS(=O)(=O)c1ccc(Cl)cc1)C12CC3CC(CC(C3)C1)C2"
  target-system: "Human 11β-HSD1 (Homo sapiens)"
  inhibition at 10 µM: "20 to 60%"
- compound: "O=S(=O)(NCC12CC3CC(CC(C3)C1)C2)c1cccs1"
  target-system: "Human 11β-HSD1 (Homo sapiens)"
  inhibition at 10 µM: "< 20%"
- compound: "O=C(NCc1cc2ccccc2s1)C12CC3CC(CC(C3)C1)C2"
  target-system: "Human 11β-HSD1 (Homo sapiens)"
  inhibition at 10 µM: "< 20%"
- compound: "CCCc1ccc(S(=O)(=O)NC23CC4CC(CC(C4)C2)C3)cc1"
  target-system: "Human 11β-HSD1 (Homo sapiens)"
  inhibition at 10 µM: "20 to 60%"
- compound: "O=S(=O)(NCC12CC3CC(CC(C3)C1)C2)c1ccc(-c2ccccc2)cc1"
  target-system: "Human 11β-HSD1 (Homo sapiens)"
  inhibition at 10 µM: "20 to 60%"
- compound: "Cn1cccc1CNC(=O)C12CC3CC(CC(C3)C1)C2"
  target-system: "Human 11β-HSD1 (Homo sapiens)"
  inhibition at 10 µM: "> 60%"
- compound: "O=C(NCCc1cccs1)NC12CC3CC(CC(C3)C1)C2"
  target-system: "Human 11β-HSD1 (Homo sapiens)"
  inhibition at 10 µM: "> 60%"
- compound: "O=C(NCCc1ccccn1)C12CC3CC(CC(C3)C1)C2"
  target-system: "Human 11β-HSD1 (Homo sapiens)"
  inhibition at 10 µM: "> 60%"
- compound: "CC(C)(C)CC(=O)NCc1cccs1"
  target-system: "Human 11β-HSD1 (Homo sapiens)"
  inhibition at 10 µM: "20 to 60%"
- compound: "CC1(C(=O)NCc2cccs2)CCCCC1"
  target-system: "Human 11β-HSD1 (Homo sapiens)"
  inhibition at 10 µM: "20 to 60%"
- compound: "COc1ccc(NC(=O)C23CC4CC(CC(C4)C2)C3)cn1"
  target-system: "Human 11β-HSD1 (Homo sapiens)"
  inhibition at 10 µM: "20 to 60%"
- compound: "O=C(COc1ccc(Cl)cc1)C12CC3CC(CC(C3)C1)C2"
  target-system: "Human 11β-HSD1 (Homo sapiens)"
  inhibition at 10 µM: "> 60%"

* * *

Below is a list of entries, each paired with its recorded melting point value.

- compound: "CN(Cc1cccs1)C(=O)CS(=O)(=O)C12CC3CC(CC(C3)C1)C2"
  melting point: "120 to 122 °C"
- compound: "COC(=O)c1ccc(OCC(=O)C23CC4CC(CC(C4)C2)C3)cc1"
  melting point: "128.7 °C"
- compound: "COC(=O)c1cccc(OCC(=O)C23CC4CC(CC(C4)C2)C3)c1"
  melting point: "84.5 °C"
- compound: "CCc1ccc(CN(C)C(=O)CC23CC4CC(CC(C4)C2)C3)s1"
  melting point: "54 to 55 °C"
- compound: "O=C(NCCc1cccs1)C12CC3CC(CC(O)(C3)C1)C2"
  melting point: "118 to 119 °C"
- compound: "O=C(N1CCc2sccc2C1)C12CC3CC(CC(C3)C1)C2"
  melting point: "141 to 143 °C"
- compound: "Cc1c(C(=O)CSCc2ccc(Cl)cc2)sc2ccc(Cl)cc12"
  melting point: "123 to 124 °C"
- compound: "O=S(=O)(NCC12CC3CC(CC(C3)C1)C2)c1ccc(-c2ccccc2)cc1"
  melting point: "188 to 189.5 °C"
- compound: "Cc1ccc(CN(C)C(=O)C23CC4CC(CC(C4)C2)C3)cc1"
  melting point: "93 to 95 °C"
- compound: "CN(CCc1ccccn1)C(=O)CC12CC3CC(CC(C3)C1)C2"
  melting point: "59 to 60 °C"
- compound: "O=C(CC12CC3CC(CC(C3)C1)C2)N1CCN(c2ccc(Cl)cc2)CC1"
  melting point: "112.5 to 115 °C"
- compound: "O=C(CC12CC3CC(CC(C3)C1)C2)N1CCN(C(=O)c2ccco2)CC1"
  melting point: "98 to 100 °C"
- compound: "CC(=O)Nc1ccc(NCC(=O)C23CC4CC(CC(C4)C2)C3)cc1"
  melting point: "156 to 158 °C"
- compound: "COc1cc2c(cc1OCc1ccccc1)CCN(C(=O)CC13CC4CC(CC(C4)C1)C3)C2"
  melting point: "133 to 135 °C"
- compound: "CCN(CC)C(=O)c1ccc(OCC(=O)C23CC4CC(CC(C4)C2)C3)cc1"
  melting point: "103.9 °C"
- compound: "O=C(CC12CC3CC(CC(C3)C1)C2)N1CCc2sccc2C1"
  melting point: "121 to 125 °C"
- compound: "Cn1ccnc1SCC(=O)C12CC3CC(CC(C3)C1)C2"
  melting point: "65 to 69 °C"
- compound: "CC(C)N(Cc1cccs1)C(=O)C12CC3CC(CC(C3)C1)C2"
  melting point: "156 to 158 °C"
- compound: "Cc1ccc(CN(C)C(=O)C23CC4CC(CC(C4)C2)C3)s1"
  melting point: "83 to 85.5 °C"
- compound: "O=C(NCCc1cccs1)[C@@H]1CC2C=CC1C2 (stereo partly drawn)"
  melting point: "122 to 124 °C"
- compound: "CC(=O)Nc1ccc(S(=O)(=O)CC(=O)C23CC4CC(CC(C4)C2)C3)cc1"
  melting point: "151 to 151.5 °C"
